Reference source: paper PMC8365602

Target or test system: 5-LOX (Homo sapiens, UniProt P09917)
Sequence (P09917 whole entry): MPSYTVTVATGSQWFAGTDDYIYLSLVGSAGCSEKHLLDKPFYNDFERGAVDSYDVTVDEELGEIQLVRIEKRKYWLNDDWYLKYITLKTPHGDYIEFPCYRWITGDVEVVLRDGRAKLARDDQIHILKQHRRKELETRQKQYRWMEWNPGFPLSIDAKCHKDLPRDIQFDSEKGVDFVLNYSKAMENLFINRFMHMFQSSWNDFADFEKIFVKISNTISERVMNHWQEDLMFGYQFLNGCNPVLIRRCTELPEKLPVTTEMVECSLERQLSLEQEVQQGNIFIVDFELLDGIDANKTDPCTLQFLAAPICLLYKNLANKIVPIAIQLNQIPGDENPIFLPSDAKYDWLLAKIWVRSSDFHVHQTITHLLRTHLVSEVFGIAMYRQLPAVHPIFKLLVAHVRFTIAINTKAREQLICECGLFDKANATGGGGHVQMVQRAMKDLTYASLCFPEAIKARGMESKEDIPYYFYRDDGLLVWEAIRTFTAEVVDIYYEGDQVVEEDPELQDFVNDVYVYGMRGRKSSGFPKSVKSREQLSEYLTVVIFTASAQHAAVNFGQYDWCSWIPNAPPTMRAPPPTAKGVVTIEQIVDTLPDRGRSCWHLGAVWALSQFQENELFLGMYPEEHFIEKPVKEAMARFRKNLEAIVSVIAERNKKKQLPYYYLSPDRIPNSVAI
Run description: 5-LOX product formation in activated PMNL
Particulars: read-out: 5-LOX PMNL IC50; 5-LOX product formation in activated PMNL; mean ± SEM
pIC50: −log10 of the molar value.

- Compound: "Cc1cc(O)cc2c1O[C@](C)(CCCC(C)CCCC(C)CCCC(CO)CO)CC2 (stereo partly shown)"
  Target or test system: "5-LOX (Homo sapiens, UniProt P09917)"
  Qualifier: "<"
  pIC50: 5.52
- Compound: "C/C(=C\\CC/C(C)=C/CC[C@]1(C)CCc2c(CN3CCOCC3)c(O)cc(C)c2O1)CCC=C(CO)CO"
  Target or test system: "5-LOX (Homo sapiens, UniProt P09917)"
  Qualifier: "="
  pIC50: 5.76
- Compound: "C/C(=C\\CC/C(C)=C/CC[C@]1(C)CCc2cc(O)c(C)c(C)c2O1)CCC=C(CO)CO [Compound 27c]"
  Target or test system: "5-LOX (Homo sapiens, UniProt P09917)"
  Qualifier: "="
  pIC50: 7.30
- Compound: "C/C(=C\\CC[C@]1(C)CCc2cc(O)cc(C)c2O1)CCC=C(CO)CO"
  Target or test system: "5-LOX (Homo sapiens, UniProt P09917)"
  Qualifier: "="
  pIC50: 5.64

* * *

Target or test system: 5-LOX (Homo sapiens)
Run description: Cell-free 5-LOX activity (isolated human recombinant enzyme)
Particulars: read-out: 5-LOX enzyme residual activity at 1 µM (Table S1)

- Molecule: "C/C(=C\\CC/C(C)=C/CC/C(C)=C/CC[C@]1(C)CCc2cc(O)cc(C)c2O1)CO [Compound 10c]"
  Target or test system: "5-LOX (Homo sapiens)"
  remaining activity at 1 µM (%): 2.7
- Molecule: "CC(C)=CCC/C(C)=C/CC/C(C)=C/CC[C@]1(C)CCc2c(C)c(O)cc(C)c2O1"
  Target or test system: "5-LOX (Homo sapiens)"
  remaining activity at 1 µM (%): 6.4
- Molecule: "Cc1c(C)c2c(c(C)c1O)CC[C@@](C)(CCC[C@H](C)CCC[C@H](C)CCCC(C)C)O2"
  Target or test system: "5-LOX (Homo sapiens)"
  remaining activity at 1 µM (%): 86.1
- Molecule: "Cc1cc(O)cc2c1O[C@](C)(CCC[C@H](C)CCC[C@H](C)CCCC(C)C)CC2"
  Target or test system: "5-LOX (Homo sapiens)"
  remaining activity at 1 µM (%): 43.3
- Molecule: "CC(C)=CCC/C(C)=C/CC/C(C)=C/CC[C@]1(C)CCc2cc(O)cc(C)c2O1"
  Target or test system: "5-LOX (Homo sapiens)"
  remaining activity at 1 µM (%): 6.7
- Molecule: "Cc1cc(O)c(C(=O)O)c2c1O[C@](C)(CCC[C@H](C)CCC[C@H](C)CCCC(C)C)CC2"
  Target or test system: "5-LOX (Homo sapiens)"
  remaining activity at 1 µM (%): 54.6
- Molecule: "Cc1cc(O)c(C=O)c2c1O[C@](C)(CCC[C@H](C)CCC[C@H](C)CCCC(C)C)CC2"
  Target or test system: "5-LOX (Homo sapiens)"
  remaining activity at 1 µM (%): 94.6
- Molecule: "CC(C)=CCC/C(C)=C/CC/C(C)=C/CC[C@]1(C)CCc2c(C)c(O)c(C)c(C)c2O1"
  Target or test system: "5-LOX (Homo sapiens)"
  remaining activity at 1 µM (%): 16.9
- Molecule: "CC(C)=CCC/C(C)=C/CC/C(C)=C/CC[C@]1(C)CCc2c(C=O)c(O)cc(C)c2O1"
  Target or test system: "5-LOX (Homo sapiens)"
  remaining activity at 1 µM (%): 74.5
- Molecule: "Cc1cc(O)c(C)c2c1O[C@](C)(CCC[C@H](C)CCC[C@H](C)CCCC(C)C)CC2"
  Target or test system: "5-LOX (Homo sapiens)"
  remaining activity at 1 µM (%): 32.8
- Molecule: "CC(C)=CCC/C(C)=C/CC/C(C)=C/CC[C@]1(C)CCc2c(C=O)c(O)c(Br)c(C)c2O1"
  Target or test system: "5-LOX (Homo sapiens)"
  remaining activity at 1 µM (%): 59
- Molecule: "C/C(=C/CC/C(C)=C/CC/C(C)=C/CC[C@]1(C)CCc2cc(O)c(C)c(C)c2O1)CO [Compound 10d]"
  Target or test system: "5-LOX (Homo sapiens)"
  remaining activity at 1 µM (%): 0
- Molecule: "Cc1c(C)c2c(c(C)c1O)CC[C@@](C)(CCCC(C)CCCC(C)CCCC(C)CO)O2 (stereo partly drawn)"
  Target or test system: "5-LOX (Homo sapiens)"
  remaining activity at 1 µM (%): 1.5
- Molecule: "COCOc1cc(C)c2c(c1C=O)CC[C@@](C)(CCC[C@H](C)CCC[C@H](C)CCCC(C)C)O2"
  Target or test system: "5-LOX (Homo sapiens)"
  remaining activity at 1 µM (%): 77.3
- Molecule: "Cc1c(C=O)c(O)c(Cl)c2c1O[C@](C)(CCC[C@H](C)CCC[C@H](C)CCCC(C)C)CC2"
  Target or test system: "5-LOX (Homo sapiens)"
  remaining activity at 1 µM (%): 72.9

* * *

Target or test system: 5-LOX (Homo sapiens, UniProt P09917)
Run description: 5-LOX product formation in activated PMNL;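 note: freshly isolated human PMNL in PBS pH 7.4 plus glucose, preincubated 10 min at 37 °C with compound, 5-LOX products (all-trans LTB4 isomers, 5-HETE) quantified by RP-HPLC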
Particulars: PMNL, read-out: 5-LOX PMNL residual activity at 3 μM
Entries whose remaining activity at 3 µM is below 10% take true; entries at or above 10% take false.

- Molecule: "C/C(=C\\CC/C(C)=C/CC[C@]1(C)CCc2c(CN(C)C)c(O)cc(C)c2O1)CCC=C(CO)CO [Compound 36]"
  Class label: "false"
- Molecule: "Cc1cc(O)cc2c1O[C@](C)(CCCC(C)CCCC(C)CCCC(C)C(=O)O)CC2 (stereo partly drawn) [Compound 12b]"
  Class label: "false"
- Molecule: "C/C(=C\\CC[C@]1(C)CCc2cc(O)cc(C)c2O1)CC/C=C/C(=O)O [Compound 16]"
  Class label: "false"
- Molecule: "C/C(=C\\CC[C@]1(C)CCc2cc(O)cc(C)c2O1)C(=O)O [Compound 18]"
  Class label: "false"
- Molecule: "Cc1cc(O)cc2c1O[C@](C)(CC/C=C/C(=O)O)CC2 [Compound 17]"
  Class label: "false"
- Molecule: "CC(=O)c1cc2c(C)c3c(c(C)c2oc1=O)CC[C@@](C)(CC/C=C(\\C)CC/C=C(\\C)CCC=C(CO)CO)O3 [Compound 41]"
  Class label: "false"
- Molecule: "COc1ccc(C2OCC(=CCC/C(C)=C/CC/C(C)=C/CC[C@]3(C)CCc4c(C)c(O)c(C=O)c(C)c4O3)CO2)cc1OC (stereo partly drawn) [Compound 47]"
  Class label: "false"
- Molecule: "COC(=O)C(C)CCC/C(C)=C/CC/C(C)=C/CC[C@]1(C)CCc2cc(O)cc(C)c2O1 (stereo partly drawn) [Compound 21]"
  Class label: "false"
- Molecule: "Cc1c(C)c2c(c(C)c1O)CC[C@@](C)(CCCC(C)CCCC(C)CCCC(C)C(=O)O)O2 (stereo partly drawn) [Compound 12a, α-T-13′-COOH]"
  Class label: "true"
- Molecule: "CC(=O)c1cc2c3c(c(C)cc2oc1=O)O[C@](C)(CC/C=C(\\C)CC/C=C(\\C)CCC=C(CO)CO)CC3 [Compound 42]"
  Class label: "false"
- Molecule: "C/C(=C\\CC[C@]1(C)CCc2c(C)c(O)c(C)c(C)c2O1)CC/C=C(\\C)CCC(=O)O [Compound 15a]"
  Class label: "false"
- Molecule: "C/C(=C\\CC[C@]1(C)CCc2cc(O)cc(C)c2O1)CC/C=C(\\C)CCC(=O)O [Compound 15b]"
  Class label: "false"
- Molecule: "C/C(=C\\CC/C(C)=C/CC[C@]1(C)CCc2cc(O)c(C)c(C)c2O1)CC/C=C(\\C)C(=O)O [Compound 13c]"
  Class label: "true"
- Molecule: "CCOC(=O)c1cc2c3c(c(C)cc2oc1=O)O[C@](C)(CC/C=C(\\C)CC/C=C(\\C)CCC=C(CO)CO)CC3 [Compound 43]"
  Class label: "true"
- Molecule: "C/C(=C\\CC/C(C)=C/CC[C@]1(C)CCc2cc(O)cc(C)c2O1)CC/C=C/C(=O)O [Compound 14]"
  Class label: "false"

* * *

Target or test system: 5-LOX (Homo sapiens, UniProt P09917)
Run description: Cell-free 5-LOX activity (isolated human recombinant enzyme)
Particulars: read-out: 5-LOX enzyme residual activity at 1 μM

- Compound: "C/C(=C\\CC/C(C)=C/CC[C@]1(C)CCc2c(CN(C)C)c(O)cc(C)c2O1)CC/C=C(\\C)C(=O)O"
  Target or test system: "5-LOX (Homo sapiens, UniProt P09917)"
  remaining activity at 1 µM (%): 7.9
- Compound: "C/C(=C\\CC/C(C)=C/CC[C@]1(C)CCc2cc(OC(=O)CCC(=O)O)cc(C)c2O1)CCC=C(CO)CO"
  Target or test system: "5-LOX (Homo sapiens, UniProt P09917)"
  remaining activity at 1 µM (%): 1.1
- Compound: "C/C(=C\\CC/C(C)=C/CC[C@]1(C)CCc2c(CN3CCCC3)c(O)cc(C)c2O1)CCC=C(CO)CO"
  Target or test system: "5-LOX (Homo sapiens, UniProt P09917)"
  remaining activity at 1 µM (%): 4.1
- Compound: "C/C(=C\\CC/C(C)=C/CC[C@]1(C)CCc2c(CN3CCN(C)CC3)c(O)c(CN3CCN(C)CC3)c(C)c2O1)CCC=C(CO)CO"
  Target or test system: "5-LOX (Homo sapiens, UniProt P09917)"
  remaining activity at 1 µM (%): 50.3
- Compound: "Cc1cc(O)cc2c1O[C@](C)(CCC=C(CO)CO)CC2"
  Target or test system: "5-LOX (Homo sapiens, UniProt P09917)"
  remaining activity at 1 µM (%): 79.7
- Compound: "COC(=O)/C(C)=C/CC/C(C)=C/CC/C(C)=C/CC[C@]1(C)CCc2c(c(C)cc(O)c2C(=O)OC)O1"
  Target or test system: "5-LOX (Homo sapiens, UniProt P09917)"
  remaining activity at 1 µM (%): 54.5
- Compound: "C/C(=C\\CC[C@]1(C)CCc2c(C)c(O)c(C)c(C)c2O1)CC/C=C(\\C)CCC(=O)O [Compound 15a]"
  Target or test system: "5-LOX (Homo sapiens, UniProt P09917)"
  remaining activity at 1 µM (%): 11.5
- Compound: "C/C(=C\\CC[C@]1(C)CCc2cc(O)cc(C)c2O1)CC/C=C/C(=O)O"
  Target or test system: "5-LOX (Homo sapiens, UniProt P09917)"
  remaining activity at 1 µM (%): 47.3
- Compound: "COc1ccc(C2OCC(=CCC/C(C)=C/CC/C(C)=C/CC[C@]3(C)CCc4c(C)c(O)c(CO)c(C)c4O3)CO2)cc1OC (stereo partly drawn)"
  Target or test system: "5-LOX (Homo sapiens, UniProt P09917)"
  remaining activity at 1 µM (%): 0.7
- Compound: "C/C(=C\\CC/C(C)=C/CC[C@]1(C)CCc2c(CN(C)C)c(O)c(CN(C)C)c(C)c2O1)CC/C=C(\\C)C(=O)O"
  Target or test system: "5-LOX (Homo sapiens, UniProt P09917)"
  remaining activity at 1 µM (%): 95.2
- Compound: "C/C(=C\\CC/C(C)=C/CC[C@]1(C)CCc2c(CN3CCOCC3)c(O)cc(C)c2O1)CCC=C(CO)CO"
  Target or test system: "5-LOX (Homo sapiens, UniProt P09917)"
  remaining activity at 1 µM (%): 3.9
- Compound: "C/C(=C\\CC[C@]1(C)CCc2cc(O)cc(C)c2O1)CC/C=C(\\C)CCCC(C)C(=O)O (stereo partly drawn) [Compound 19b]"
  Target or test system: "5-LOX (Homo sapiens, UniProt P09917)"
  remaining activity at 1 µM (%): 7.4
- Compound: "COc1ccc(C2OCC(=CCC/C(C)=C/CC/C(C)=C/CC[C@]3(C)CCc4cc(O)cc(C)c4O3)CO2)cc1OC (stereo partly drawn)"
  Target or test system: "5-LOX (Homo sapiens, UniProt P09917)"
  remaining activity at 1 µM (%): 12.7
- Compound: "CC(=O)c1cc2c(C)c3c(c(C)c2oc1=O)CC[C@@](C)(CC/C=C(\\C)CC/C=C(\\C)CCC=C(CO)CO)O3"
  Target or test system: "5-LOX (Homo sapiens, UniProt P09917)"
  remaining activity at 1 µM (%): 35.1
- Compound: "COC(=O)C(C)CCC/C(C)=C/CC/C(C)=C/CC[C@]1(C)CCc2cc(OC)cc(C)c2O1 (stereo partly drawn)"
  Target or test system: "5-LOX (Homo sapiens, UniProt P09917)"
  remaining activity at 1 µM (%): 88.7
